Assignment: determine reported Ki for the given molecules.
# measured-on: PSMA (Homo sapiens (Human), UniProt Q04609)
# Sequence (Q04609 whole entry): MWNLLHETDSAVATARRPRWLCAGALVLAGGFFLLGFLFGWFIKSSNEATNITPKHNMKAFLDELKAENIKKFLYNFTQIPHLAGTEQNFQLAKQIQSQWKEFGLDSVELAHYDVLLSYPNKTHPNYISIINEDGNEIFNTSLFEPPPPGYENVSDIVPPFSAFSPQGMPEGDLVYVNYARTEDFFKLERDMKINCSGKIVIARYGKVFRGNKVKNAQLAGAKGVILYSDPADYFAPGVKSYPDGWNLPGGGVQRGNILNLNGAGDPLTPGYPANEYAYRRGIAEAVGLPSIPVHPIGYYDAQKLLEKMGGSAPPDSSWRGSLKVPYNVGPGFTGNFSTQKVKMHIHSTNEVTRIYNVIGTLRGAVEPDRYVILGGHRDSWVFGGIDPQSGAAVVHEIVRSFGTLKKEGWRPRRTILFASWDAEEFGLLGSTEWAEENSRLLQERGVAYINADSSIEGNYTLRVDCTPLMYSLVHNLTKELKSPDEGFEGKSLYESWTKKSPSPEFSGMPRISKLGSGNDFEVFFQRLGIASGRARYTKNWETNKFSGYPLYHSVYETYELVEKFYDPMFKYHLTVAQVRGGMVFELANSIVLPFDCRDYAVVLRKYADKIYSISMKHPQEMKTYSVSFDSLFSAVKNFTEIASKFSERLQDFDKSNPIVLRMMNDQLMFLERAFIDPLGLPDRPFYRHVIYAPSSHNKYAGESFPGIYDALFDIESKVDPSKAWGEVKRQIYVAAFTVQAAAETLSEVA
# assay-remarks: PSMA binding affinity
# stated-conditions: Table 6, given as range

Item: O=C(O)CC[C@H](NC(=O)N[C@@H](CCCCN(Cc1ccc(Br)cc1)C(=O)CCCCCCC(=O)NCCCCNC(=O)c1ccc(CNC(=O)CN2CCN(CC(=O)O)CCN(CC(=O)O)CCN(CC(=O)O)CC2)cc1)C(=O)O)C(=O)O [Ligand L5] | Ki: 0.46 to 0.63 nM

Item: O=C(O)CC[C@H](NC(=O)N[C@@H](CCCCN(Cc1ccc(Br)cc1)C(=O)CCCCNC(=O)CCC(C(=O)O)N1CCN(CC(=O)O)CCN(CC(=O)O)CCN(CC(=O)O)CC1)C(=O)O)C(=O)O (stereo partly shown) [Ligand L9] | Ki: 0.02 to 0.05 nM

Item: O=C(O)CC[C@H](NC(=O)N[C@@H](CCCCN(Cc1ccc(Br)nc1)C(=O)CCCCNC(=O)CN1CCN(CC(=O)O)CCN(CC(=O)O)CCN(CC(=O)O)CC1)C(=O)O)C(=O)O [Ligand L13] | Ki: 0.23 to 8.1 nM

Item: O=C(O)CC[C@H](NC(=O)N[C@@H](CCCCN(Cc1ccc(Br)cc1)C(=O)c1ccc(CNC(=O)CN2CCN(CC(=O)O)CCN(CC(=O)O)CCN(CC(=O)O)CC2)cc1)C(=O)O)C(=O)O [Ligand L12] | Ki: 0.22 to 4.03 nM
